- Tested on: NCI/ADR-RES
- assay notes: Growth inhibition of human NCI/ADR-RES cells after 48 hrs by sulforhodamine B assay
- Type: functional
property name: GI50 (nM)
Respond numerically; units are nM and should not be typed.

Sample C=C1[C@@H](OCCCO[C@H]2O[C@@H]3O[C@@]4(C)CC[C@H]5[C@H](C)CC[C@@H](C2=C)[C@@]35OO4)O[C@@H]2O[C@@]3(C)CC[C@H]4[C@H](C)CC[C@@H]1[C@@]24OO3 — what was its GI50?
533

Queued: C[C@H]1[C@@H](O[C@H]2CC[C@@H](O[C@H]3O[C@@H]4O[C@@]5(C)CC[C@H]6[C@H](C)CC[C@@H]([C@H]3C)[C@@]46OO5)CC2)O[C@@H]2O[C@@]3(C)CC[C@H]4[C@H](C)CC[C@@H]1[C@@]24OO3
77

Queued: C[C@H]1[C@@H](OCCO[C@H]2O[C@@H]3O[C@@]4(C)CC[C@H]5[C@H](C)CC[C@@H]([C@H]2C)[C@@]35OO4)O[C@@H]2O[C@@]3(C)CC[C@H]4[C@H](C)CC[C@@H]1[C@@]24OO3
243

Queued: C[C@H]1[C@H](OCCO[C@H]2O[C@@H]3O[C@@]4(C)CC[C@H]5[C@H](C)CC[C@@H]([C@H]2C)[C@@]35OO4)O[C@@H]2O[C@@]3(C)CC[C@H]4[C@H](C)CC[C@@H]1[C@@]24OO3
55

###

So I've got a bunch of molecules here, and I need their IC50 values.
- Test system: Plasmodium falciparum
- assay notes: Antimalarial activity after 72 hrs against chloroquine-resistant Plasmodium falciparum W2 infected erythrocytes by LDH assay
- Format: functional, organism-based
- condition notes: W2, 72 h
Respond numerically; units are µM and should not be typed.

Sample C[C@H]1[C@H](O[C@H]2O[C@@H]3O[C@@]4(C)CC[C@H]5[C@H](C)CC[C@@H]([C@H]2C)[C@@]35OO4)O[C@@H]2O[C@@]3(C)CC[C@H]4[C@H](C)CC[C@@H]1[C@@]24OO3 — what was its IC50?
25.4

Queued: C[C@H]1[C@@H](OCC(=O)CO[C@H]2O[C@@H]3O[C@@]4(C)CC[C@H]5[C@H](C)CC[C@@H]([C@H]2C)[C@@]35OO4)O[C@@H]2O[C@@]3(C)CC[C@H]4[C@H](C)CC[C@@H]1[C@@]24OO3
0.3

Queued: C[C@H]1[C@@H](OCCCO[C@H]2O[C@@H]3O[C@@]4(C)CC[C@H]5[C@H](C)CC[C@@H]([C@H]2C)[C@@]35OO4)O[C@@H]2O[C@@]3(C)CC[C@H]4[C@H](C)CC[C@@H]1[C@@]24OO3
8.5

Queued: C[C@H]1[C@@H](O[C@@H](C)CO[C@H]2O[C@@H]3O[C@@]4(C)CC[C@H]5[C@H](C)CC[C@@H]([C@H]2C)[C@@]35OO4)O[C@@H]2O[C@@]3(C)CC[C@H]4[C@H](C)CC[C@@H]1[C@@]24OO3
5.1

Queued: C[C@H]1[C@@H](O[C@H]2CC[C@H](O[C@H]3O[C@@H]4O[C@@]5(C)CC[C@H]6[C@H](C)CC[C@@H]([C@H]3C)[C@@]46OO5)CC2)O[C@@H]2O[C@@]3(C)CC[C@H]4[C@H](C)CC[C@@H]1[C@@]24OO3
13.3

Queued: C[C@H]1[C@@H](OCCO[C@H]2O[C@@H]3O[C@@]4(C)CC[C@H]5[C@H](C)CC[C@@H]([C@H]2C)[C@@]35OO4)O[C@@H]2O[C@@]3(C)CC[C@H]4[C@H](C)CC[C@@H]1[C@@]24OO3
1.2

Queued: C[C@H]1[C@H](OCCO[C@H]2O[C@@H]3O[C@@]4(C)CC[C@H]5[C@H](C)CC[C@@H]([C@H]2C)[C@@]35OO4)O[C@@H]2O[C@@]3(C)CC[C@H]4[C@H](C)CC[C@@H]1[C@@]24OO3
21.9

Queued: C[C@H]1[C@@H](OCC(CO[C@H]2O[C@@H]3O[C@@]4(C)CC[C@H]5[C@H](C)CC[C@@H]([C@H]2C)[C@@]35OO4)OC(=O)CCC(=O)O)O[C@@H]2O[C@@]3(C)CC[C@H]4[C@H](C)CC[C@@H]1[C@@]24OO3 (stereo partly drawn)
2.1

###

So I've got a bunch of molecules here, and I need their GI50 values.
- Test system: K562
- assay notes: Growth inhibition of human K562 cells after 48 hrs by sulforhodamine B assay
- Type: functional
- condition notes: K562, 48 h
Respond numerically; units are nM and should not be typed.

Sample C=C1[C@@H](OCCCO[C@H]2O[C@@H]3O[C@@]4(C)CC[C@H]5[C@H](C)CC[C@@H](C2=C)[C@@]35OO4)O[C@@H]2O[C@@]3(C)CC[C@H]4[C@H](C)CC[C@@H]1[C@@]24OO3 — what was its GI50?
50

Queued: C[C@H]1[C@@H](OCCO[C@H]2O[C@@H]3O[C@@]4(C)CC[C@H]5[C@H](C)CC[C@@H]([C@H]2C)[C@@]35OO4)O[C@@H]2O[C@@]3(C)CC[C@H]4[C@H](C)CC[C@@H]1[C@@]24OO3
14

Queued: C[C@H]1[C@@H](OCC(O)CO[C@@H]2C[C@@H]3CC[C@@H](C)[C@@H]4CC[C@@]5(C)OO[C@@]34[C@H](O2)O5)O[C@@H]2O[C@@]3(C)CC[C@H]4[C@H](C)CC[C@@H]1[C@@]24OO3 (some centres undefined)
60

###

So I've got a bunch of compounds here, and I need their GI50 values.
- Test system: NCI-H522
- assay notes: Growth inhibition of human NCI-H522 cells after 48 hrs by sulforhodamine B assay
- Assay type: functional
- condition notes: NCI-H522, 48 h
Respond numerically; units are nM and should not be typed.

Sample C[C@H]1[C@@H](O[C@H]2CC[C@@H](O[C@H]3O[C@@H]4O[C@@]5(C)CC[C@H]6[C@H](C)CC[C@@H]([C@H]3C)[C@@]46OO5)CC2)O[C@@H]2O[C@@]3(C)CC[C@H]4[C@H](C)CC[C@@H]1[C@@]24OO3 — what was its GI50?
21

Queued: C[C@H]1[C@@H](OCCO[C@H]2O[C@@H]3O[C@@]4(C)CC[C@H]5[C@H](C)CC[C@@H]([C@H]2C)[C@@]35OO4)O[C@@H]2O[C@@]3(C)CC[C@H]4[C@H](C)CC[C@@H]1[C@@]24OO3
69

Queued: COCC(CO[C@H]1O[C@@H]2O[C@@]3(C)CC[C@H]4[C@H](C)CC[C@@H]([C@H]1C)[C@@]24OO3)O[C@H]1O[C@@H]2O[C@@]3(C)CC[C@H]4[C@H](C)CC[C@@H]([C@H]1C)[C@@]24OO3 (some centres not stated)
58

Queued: C[C@H]1[C@@H](OCC(CO[C@H]2O[C@@H]3O[C@@]4(C)CC[C@H]5[C@H](C)CC[C@@H]([C@H]2C)[C@@]35OO4)OC(=O)CCC(=O)O)O[C@@H]2O[C@@]3(C)CC[C@H]4[C@H](C)CC[C@@H]1[C@@]24OO3 (some centres not stated)
63

Queued: C[C@H]1[C@@H](OCC(O)CO[C@@H]2C[C@@H]3CC[C@@H](C)[C@@H]4CC[C@@]5(C)OO[C@@]34[C@H](O2)O5)O[C@@H]2O[C@@]3(C)CC[C@H]4[C@H](C)CC[C@@H]1[C@@]24OO3 (some centres not stated)
521

Queued: C[C@H]1[C@@H](OCCCO[C@H]2O[C@@H]3O[C@@]4(C)CC[C@H]5[C@H](C)CC[C@@H]([C@H]2C)[C@@]35OO4)O[C@@H]2O[C@@]3(C)CC[C@H]4[C@H](C)CC[C@@H]1[C@@]24OO3
7130

Queued: C[C@H]1[C@@H](OCC(=O)CO[C@H]2O[C@@H]3O[C@@]4(C)CC[C@H]5[C@H](C)CC[C@@H]([C@H]2C)[C@@]35OO4)O[C@@H]2O[C@@]3(C)CC[C@H]4[C@H](C)CC[C@@H]1[C@@]24OO3
18

Queued: C[C@H]1[C@H](OCCO[C@H]2O[C@@H]3O[C@@]4(C)CC[C@H]5[C@H](C)CC[C@@H]([C@H]2C)[C@@]35OO4)O[C@@H]2O[C@@]3(C)CC[C@H]4[C@H](C)CC[C@@H]1[C@@]24OO3
680

Queued: C=C1[C@@H](OCCCO[C@H]2O[C@@H]3O[C@@]4(C)CC[C@H]5[C@H](C)CC[C@@H](C2=C)[C@@]35OO4)O[C@@H]2O[C@@]3(C)CC[C@H]4[C@H](C)CC[C@@H]1[C@@]24OO3
401

Queued: C[C@H]1[C@H](OCCCCO[C@H]2O[C@@H]3O[C@@]4(C)CC[C@H]5[C@H](C)CC[C@@H]([C@H]2C)[C@@]35OO4)O[C@@H]2O[C@@]3(C)CC[C@H]4[C@H](C)CC[C@@H]1[C@@]24OO3
16

Queued: C[C@H]1[C@@H](O[C@@H](C)CO[C@H]2O[C@@H]3O[C@@]4(C)CC[C@H]5[C@H](C)CC[C@@H]([C@H]2C)[C@@]35OO4)O[C@@H]2O[C@@]3(C)CC[C@H]4[C@H](C)CC[C@@H]1[C@@]24OO3
54

Queued: C[C@H]1[C@@H](O[C@H]2CC[C@H](O[C@H]3O[C@@H]4O[C@@]5(C)CC[C@H]6[C@H](C)CC[C@@H]([C@H]3C)[C@@]46OO5)CC2)O[C@@H]2O[C@@]3(C)CC[C@H]4[C@H](C)CC[C@@H]1[C@@]24OO3
36
